The origin of these recorded values is patent US20220041616A1.

Target: ACC1 (Homo sapiens)
Construct: purchased BPS bioscience
Assay: In vitro inhibition of ACC1 activity, ADP-Glo Kinase Analysis
Type: biochemical
Conditions: 1 nM ACC1, 10 μM acetyl-CoA, 20 μM ATP
property.measured: IC50

Provide IC50 for all items below, preserving their order.
1. COc1ccccc1[C@H](CN1C(=O)C2(CCNCC2)C(=O)c2c1sc(-c1ncco1)c2C)OC1CCOCC1 [Compound 21]
2. COC(=O)N1CCC2(CC1)C(=O)c1c(sc(-c3ncco3)c1C)N(C[C@H](OC1CCOCC1)c1ccccc1OC)C2=O [Compound 28]

< 10 nM
< 10 nM

Provide IC50 values for the following items, in order.
1. COc1ccccc1[C@H](CN1C(=O)C2(CCN(C(C)(C)C(=O)O)CC2)C(=O)c2c1sc(-c1ncco1)c2C)OC1CCOCC1 [Compound 25]
2. COc1ccccc1C(CN1C(=O)C2(CCC(C(=O)O)C2)C(=O)c2c1sc(-c1ncco1)c2C)OC1CCOCC1 (mixture of isomers) [Compound 5y]

["10 to 100 nM", "< 10 nM"]

---

For each record, write down the corresponding IC50.
Test system: HepG2 cells
Experiment: In vitro inhibition of fatty acid synthesis in HepG2 cells ([14C]-acetate incorporation)
Format: cell-based, human
Details: Homo sapiens, HepG2, 1 h compound, then 5 h [2-14C]-acetic acid

Illustrative cases are given below, each with its answer.
- COc1ccccc1[C@H](CN1c2sc(-c3ncco3)c(C)c2C(=O)[C@]2(C[C@H](C(=O)O)C2)C1=O)OC1CCOCC1: < 50 nM
- COc1ccccc1C(CN1C(=O)C2(CC(C(=O)O)C2)C(=O)c2c1sc(-c1ncco1)c2C)OC1CCOCC1 (mixture of isomers) [Compound 8]: < 50 nM
- COc1ccccc1C(CN1C(=O)C2(CCC(C(=O)O)C2)C(=O)c2c1sc(-c1ncco1)c2C)OC1CCOCC1 (mixture of isomers) [Compound 5x]: 50 to 500 nM
- COc1ccccc1C(CN1C(=O)C2(CCC(C(=O)O)C2)C(=O)c2c1sc(-c1ncco1)c2C)OC1CCOCC1 (single isomer, unassigned) [Compound 5b]: < 50 nM

Kindly review the next molecule as well.
The recorded IC50 for COc1ccccc1C(CN1C(=O)C2(CC(C(=O)O)C2)C(=O)c2c1sc(-c1ncco1)c2C)OC1CCOCC1 (single isomer, unassigned) [Compound 8d] is < 50 nM

---

Biological target: ACC1 (Homo sapiens)
Construct: purchased BPS bioscience
Test: In vitro inhibition of ACC1 activity, ADP-Glo Kinase Analysis
Assay type: biochemical
Conditions: 1 nM ACC1, 10 μM acetyl-CoA, 20 μM ATP
property.measured: IC50

Some entries whose results are on file:
• COc1ccccc1C(CN1C(=O)C2(CCC(C(=O)O)C2)C(=O)c2c1sc(-c1ncco1)c2C)OC1CCOCC1 (single isomer, unassigned) [Compound 5b] = < 10 nM
• COC(=O)CN1CCC2(CC1)C(=O)c1c(sc(-c3ncco3)c1C)N(C[C@H](OC1CCOCC1)c1ccccc1OC)C2=O = 10 to 100 nM

Let us move to another entry and its IC50.
Form: item COc1ccccc1C(CN1C(=O)C2(CC(C(=O)O)C2)C(=O)c2c1sc(-c1ncco1)c2C)OC1CCOCC1 (single isomer, unassigned) [Compound 8b] ; test system ACC1 (Homo sapiens); IC50: 100 to 500 nM
